Experiment: Phase 1 study in healthy human volunteers, plasma pharmacokinetics
Type: in vivo
Conditions: male, human, multiple dose phase, Day 1, 450 mg, oral solution, read-out: Cmax (mM) AVE ± SD
measure: Cmax (mM)

[[record]]
structure_string = "COc1ccc(-c2ccc(Cn3c(CC(C)(C)C(=O)O)c(SC(C)(C)C)c4cc(OCc5ccccn5)ccc43)cc2)cn1"
measure = "Cmax"
units_symbol = "mM"
obs_value = 0.0047


====

Experiment: Phase 1 study in healthy human volunteers, plasma pharmacokinetics
Format: in vivo
Settings: male, human, multiple dose phase, Day 1, 1000 mg, oral solution, read-out: AUC0-24 (hr * mM) AVE ± SD
measure: AUC(0-t)

[[record]]
structure_string = "COc1ccc(-c2ccc(Cn3c(CC(C)(C)C(=O)O)c(SC(C)(C)C)c4cc(OCc5ccccn5)ccc43)cc2)cn1"
measure = "AUC(0-t)"
obs_value = "127 µM·h"

